# measured_on: Genome polyprotein (dengue virus type 2, UniProt P29990)
# Sequence (P29990 1346-1475 limits assumed): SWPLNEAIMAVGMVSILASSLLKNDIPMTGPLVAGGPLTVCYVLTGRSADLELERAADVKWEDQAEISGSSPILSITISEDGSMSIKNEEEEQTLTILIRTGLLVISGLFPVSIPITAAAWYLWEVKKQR
# Sequence (P29990 1476-2093 limits assumed): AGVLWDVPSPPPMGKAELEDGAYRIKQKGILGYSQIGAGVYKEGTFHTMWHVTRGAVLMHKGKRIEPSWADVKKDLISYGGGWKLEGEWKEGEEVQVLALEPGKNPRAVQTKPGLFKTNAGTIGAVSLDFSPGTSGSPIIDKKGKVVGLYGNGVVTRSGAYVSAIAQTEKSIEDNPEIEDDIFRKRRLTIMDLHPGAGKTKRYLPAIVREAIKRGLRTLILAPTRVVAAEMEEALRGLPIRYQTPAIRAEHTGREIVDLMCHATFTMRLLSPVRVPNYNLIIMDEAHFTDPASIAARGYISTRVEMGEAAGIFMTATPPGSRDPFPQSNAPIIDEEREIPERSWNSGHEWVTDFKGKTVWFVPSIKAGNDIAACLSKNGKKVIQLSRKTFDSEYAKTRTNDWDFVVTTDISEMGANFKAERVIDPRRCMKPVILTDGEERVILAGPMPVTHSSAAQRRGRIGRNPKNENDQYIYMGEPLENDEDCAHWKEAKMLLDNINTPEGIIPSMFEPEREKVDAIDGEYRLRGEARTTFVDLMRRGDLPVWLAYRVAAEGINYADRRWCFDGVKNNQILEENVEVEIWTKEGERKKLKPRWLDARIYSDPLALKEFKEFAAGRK
# Assay type: functional, Thailand/16681/1984
pIC50: −log10 of the molar value.
The molecules listed here are annotated with their pIC50.

NCc1cc(C=C2CC(C(=O)O)C2)cc(NC(=O)c2cc(Cl)cc(NC(=O)OCc3ccccc3)c2)c1 (configuration not stated) | < 4.00
N#C[C@H](Nc1cccc(-c2nn[nH]n2)c1)c1cc(Cl)cc2[nH]ncc12 | < 4.00
O=C(Nc1cc(-c2cccnc2)ccn1)c1c[nH]c2ncccc12 | < 4.00

Note to self: pIC50 recorded for `COC(=O)c1cc(Cl)ccc1NS(=O)(=O)c1ccc(O)cc1` was < 4.00

Note to self: pIC50 recorded for `CCn1ccnc(N2CC[C@H](C#N)C2)c1=O` was < 4.00

Note to self: pIC50 recorded for `O=C(Nc1ccc2c(c1)CNC2)N1CC[C@H](CC(F)(F)F)C1` was < 4.00

Note to self: pIC50 recorded for `O=C1Cc2c(cccc2C(=O)Nc2nc([C@H]3CCCOC3)cs2)N1` was < 4.00

Note to self: pIC50 recorded for `Cn1cc([C@@H]2C[C@H](C(=O)Nc3cccc(CN)c3)CC(=O)N2)cn1` was < 4.00

----------
# measured_on: Genome polyprotein (dengue virus type 2)
# Format: functional, Thailand/16681/1984
The molecules listed here are annotated with their IC50.

Here are 4 molecules together with their reported answers.
C[C@H]1CN(C)C[C@H](C(=O)Nc2cccc(CN)c2)O1 | > 100 µM
CCOC(=O)[C@H]1[C@H](c2cc(Cl)cc(NC(=O)OCc3ccccc3)c2)[C@H]1c1cccc(-c2nnn[nH]2)c1 | 13.9 µM
O=C(Nc1ccc2c(c1)CNC2)c1ccc2c(c1)CCC2 | > 100 µM
N#C[C@H](Nc1cccc(C(=O)O)c1)c1cc(Cl)cc2[nH]ncc12 | > 100 µM

Now turn to the next molecule.
Note to self: IC50 recorded for `CC(C)n1cnc2cc(C(=O)Nc3ccc4c(c3)CNC4)ccc21` was > 100 µM

----------
# measured_on: UniProtKB P29990
# Type: functional, Thailand/16681/1984
value_type: IC50

C[C@H](CC(=O)O)N(C)C(=O)c1cc(Cl)cc(NC(=O)OCc2ccccc2)c1 | > 99.5 µM
O=C(Nc1ccc2c(c1)CNCCO2)c1cc(Cl)cc2[nH]ncc12 | > 99.5 µM
O=C(N[C@@H](C(=O)NCc1c[nH]cn1)c1ccc(OCc2ccccc2)cc1)OCc1ccccc1 | > 99.5 µM

Note to self: IC50 recorded for `CCc1[nH]c2ccccc2c1CN1CCC(c2cscn2)CC1` was > 99.5 µM

Note to self: IC50 recorded for `O=C(NCC(F)F)[C@H](Nc1ccc2c(c1)CNC2)c1cc(Cl)cc2cccnc12` was 93 µM

Note to self: IC50 recorded for `CN(C)Cc1ccc(CNC(=O)[C@@H](NC(=O)OCc2ccccc2)c2ccc(OCc3ccccc3)cc2)cc1` was > 99.5 µM

Note to self: IC50 recorded for `O=C1Cc2c(cc(F)cc2C(=O)Nc2cc([C@H]3CCOC3)ccn2)N1` was > 99.5 µM

Note to self: IC50 recorded for `O=C(Nc1cc(Cl)cc([C@H](C#CCO)Nc2ccc(-c3nn[nH]n3)cc2)c1)OCc1ccccc1` was 12.2 µM

Note to self: IC50 recorded for `CNC(=O)c1cc(Cl)ccc1NS(=O)(=O)c1ccc(OC2CCCC2)nc1` was > 99.5 µM

Note to self: IC50 recorded for `COc1ccc(C)cc1S(=O)(=O)N[C@@H](C(=O)Nc1cccc(CN)c1)c1ccc(OCc2ccccc2)cc1` was 96 µM

Note to self: IC50 recorded for `O=C(O)[C@@H]1CCCC[C@@H]1NS(=O)(=O)c1ccc(Oc2ccccc2Cl)cc1` was > 99.5 µM

Note to self: IC50 recorded for `O=C(Nc1ccc2c(c1)CNC2)c1ccnc2[nH]ccc12` was > 99.5 µM

Note to self: IC50 recorded for `Cc1cc(-c2ccc3[nH]c(C(=O)O)cc3c2)c2cc[nH]c(=O)c2c1` was > 99.5 µM

----------
# measured_on: Genome polyprotein (dengue virus type 2, UniProt P29990)
# Type: functional, Thailand/16681/1984
value_type: IC50

Here are 4 molecules together with their reported answers.
C#C[C@H](Nc1cccc(-c2nn[nH]n2)c1)c1cc(Cl)cc(NC(=O)OCc2ccccc2)c1 | 10.6 µM
Clc1cc([C@H](C#CC2CC2)Nc2ccc3c(c2)CNC3)c2cn[nH]c2c1 | > 99.5 µM
O=C(O)CCc1ccc(NC(=O)c2cc(Cl)cc(C3CC3)c2)cc1 | > 99.5 µM
O=C(Nc1ccc2c(c1)CNC2)c1cccc2[nH]cnc12 | > 99.5 µM

Now turn to the next molecule.
Note to self: IC50 recorded for `CCn1c(=O)c(N2CC[C@H](CO)C2)nc2cc(C(=O)O)ccc21` was > 99.5 µM

----------
# measured_on: Genome polyprotein (dengue virus type 2)
# Assay type: functional, Thailand/16681/1984
value_type: IC50

Note to self: IC50 recorded for `NCCNS(=O)(=O)c1ccc(NC(=O)c2cc(Cl)cc(NC(=O)OCc3ccccc3)c2)cc1` was 33.6 µM

----------
# measured_on: UniProtKB P29990
# Type: functional, Thailand/16681/1984
The molecules listed here are annotated with their IC50.

Cc1c(C(=O)Nc2cc(C3(C)OCCO3)ccn2)cc(C2CC2)n1C | > 100 µM
CC(C)C[C@H](NC(=O)c1cc(Cl)cc(NC(=O)OCc2ccccc2)c1)c1nnn[nH]1 | 28.3 µM
Cc1onc(C(=O)Nc2cccc(CN)c2)c1COc1cccc(F)c1 | > 100 µM
O=C(Nc1cc(Cl)cc(C(=O)Nc2ncc(C3CNC3)s2)c1)OCc1ccccc1 | > 100 µM

Note to self: IC50 recorded for `CNC(=O)[C@]1(Nc2ccc3c(c2)CNC3)CCc2ccc(Cl)cc21` was > 100 µM

----------
The compounds listed here are annotated with their IC50.
# measured_on: Genome polyprotein (dengue virus type 2)
# Type: functional, Thailand/16681/1984
Numeric answer only, unit µM assumed.

Here are 2 compounds together with their reported answers.
O=C(O)CCc1ccc(NC(=O)c2cc(Cl)cc(NC(=O)OCc3ccccc3)c2)cc1 | 42.8
O=C(Nc1ccc([C@H]2CCNC2)cc1)c1cc(Cl)cc2[nH]ncc12 | 87.8

Now turn to the next compound.
Note to self: IC50 recorded for `O=C(Nc1cc(Cl)cc(C(=O)Nc2ccc(C3CNC3)cc2)c1)OCc1ccccc1` was 39.2

----------
# measured_on: Genome polyprotein (dengue virus type 2)
# Format: functional, Thailand/16681/1984
pIC50: −log10 of the molar value.
The molecules listed here are annotated with their pIC50.

O=C(O)c1cc(Cl)cc(Cl)c1S(=O)(=O)Nc1ccc(Oc2ccccc2Cl)cc1 | < 4.00
CS(=O)(=O)NC(=O)C[C@H]1NCc2cc(NC(=O)c3cc(Cl)cc4[nH]ncc34)ccc21 | < 3.53

Now turn to the next molecule.
Note to self: pIC50 recorded for `CNCc1cc(Cl)cc(C(=O)Nc2cccc(CN)c2)c1` was < 4.00

----------
# measured_on: Genome polyprotein (dengue virus type 2, UniProt P29990)
# Type: functional, Thailand/16681/1984
pIC50: −log10 of the molar value.
The molecules listed here are annotated with their pIC50.

CCn1cc(C(=O)N2CCN(C)CC2)nc(N2CC[C@@H](CO)C2)c1=O | < 4.00
CS(=O)(=O)Nc1cccc(NC(=O)c2cc(Cl)cc(NC(=O)OCc3ccccc3)c2)c1 | < 4.00
CNC(=O)[C@]1(Nc2ccc3c(c2)CNC3)C(=O)Nc2c(OC)cc(Br)cc21 | < 4.00
O=C(NCC(F)F)[C@H](Nc1ccc2c(c1)CNC2)c1cc(F)cc2[nH]ncc12 | < 4.00
O=C(O)c1cc(Cl)c(Cl)cc1NS(=O)(=O)c1ccc(Oc2ccccc2Cl)cc1 | 5.18

Note to self: pIC50 recorded for `O=C1Cc2c(cccc2C(=O)NC[C@H]2CCCN(c3nccs3)C2)N1` was < 4.00

Note to self: pIC50 recorded for `O=c1ccc(N2CCN(Cc3c[nH]c4ccccc34)CC2)n[nH]1` was < 4.00

Note to self: pIC50 recorded for `O=C(O)c1cc(Cl)ccc1S(=O)(=O)Nc1ccc(-c2cccc(F)c2)cc1` was 4.57

Note to self: pIC50 recorded for `Cc1cc(CN)cc(NC(=O)c2cc(Cl)cc3[nH]ncc23)c1` was 4.01

Note to self: pIC50 recorded for `N#Cc1ccccc1-c1ccc(S(=O)(=O)Nc2ccc(Cl)cc2C(=O)O)cc1` was 4.60

Note to self: pIC50 recorded for `Cn1nc(NC(=O)[C@@H](NC(=O)OCc2ccccc2)c2ccc(OCc3ccccc3)cc2)c2c1CNC2` was < 4.00
